tested on: UACC-257 melanoma; experiment: NCI tumour cell line growth inhibition, 48 h
Please respond with reported GI50 for every item in the list.

Example results:
COc1cc2c(=O)n(CC3CCCCC3)c3c4cc[nH]c4ncc3c2cc1OC | 23.8 µM
COc1ccc(/C=C/C(=O)c2ccc(Nc3nc(Nc4ccc(F)cc4)nc(Nc4ccc(F)cc4)n3)cc2)cc1 | 19 µM
C1CC[N-]CC1.CC(=N\O)/C(C)=N/O.CC(=N\O)/C(C)=N/O.C[CH-]C(C)O.[Co+2] | 18.2 µM

Now look at this one.
Recall and state the measured GI50 for COc1ccc(S(=O)(=O)Nc2cc(Sc3cccc4cccnc34)c(O)c3ccccc23)cc1 .
1.85 µM

----------
tested on: MALME-3M melanoma; test: NCI tumour cell line growth inhibition, 48 h
observed.property: TGI (µM)
One number for each entry, in µM.

CC1(C2CCC3(C)C(C2)C3Sc2ccccc2)OCCO1 (centres undefined) | 41.8
COc1ccc(/C=C/C(=O)c2ccc(Nc3nc(Nc4ccc(F)cc4)nc(Nc4ccc(F)cc4)n3)cc2)cc1 | 46.6
CCOC(=O)C1=C(C)N(Cc2ccccc2)C2(O)C(OC)CC(=O)C3C(=O)N(c4ccccc4)C(=O)C132 (centres undefined) | 36.7
C1CC[N-]CC1.CC(=N\O)/C(C)=N/O.CC(=N\O)/C(C)=N/O.C[CH-]C(C)O.[Co+2] | 29.7

Recall and state the measured TGI for CCC(C)N1CN(c2ccccc2)C2(CCN(CCCC3(c4ccc(F)cc4)OCCO3)CC2)C1=O (centres undefined) .
9.5

----------
test system: OVCAR-8 ovarian; assay: NCI tumour cell line growth inhibition, 48 h
observed.property: TGI

Example results:
Cc1cc(OCc2nnc3n2N=C(c2cc(F)c(Cl)cc2Cl)/C(=C/c2ccc(-c4ccc(Cl)cc4)o2)S3)ccc1Cl | > 50 µM
CCOC(=O)C1=C(C)N(Cc2ccccc2)C2(O)C(OC)CC(=O)C3C(=O)N(c4ccccc4)C(=O)C132 (stereo not given) | 31.9 µM
CNC(=O)C1OC(n2cnc3c(NCc4cccc(I)c4)nc(Cl)nc32)C(O)C1O (stereo not given) | 26.7 µM
NC(=S)NS(=O)(=O)c1ccc(Cl)cc1 | > 100 µM

Hi! Can you tell me TGI for each of these compounds?
1. C#C[C@@H](CCCC)OC(=O)N[C@H](C)c1ccccc1
2. Cc1ccc(C)c2c1n1c(=O)n(C)c(=O)n21
3. Cc1cn2cc(-c3ccc4c(c3)CC(=O)N4)nc2s1
4. CCOC(=O)CCC(NC(=O)c1ccc(Nc2nc3ccccc3nc2C(=O)OCC)s1)C(=O)OCC (stereo not given)

1. > 100 µM
2. > 100 µM
3. > 100 µM
4. > 100 µM

----------
Please respond with reported TGI for every item in the list.
system: BT-549 breast; assay: NCI tumour cell line growth inhibition, 48 h
One number for each entry, in µM.

Example results:
CC(=O)c1c(O)cc(O)c(-c2c(C)cc(O)c3c2C(=O)c2cccc(O)c2C3=O)c1O | 35.3
CC(=O)/C(=C/N1CCN(C(=O)c2ccco2)C1=S)C(=O)c1ccccc1 | 18.1
CNC(=O)C1OC(n2cnc3c(NCc4cccc(I)c4)nc(Cl)nc32)C(O)C1O (stereo unspecified) | 28.5
O=S(=O)(Nc1ccc(Cl)c(Cl)c1)c1ccc(-c2cnc(C3CC3)o2)cc1 | 18.2
O=c1[nH]c2ccc(C(F)(F)F)cc2nc1C(F)(F)F | 89.8

Hi! Can you tell me TGI for each of these molecules?
1. COc1cc2c(=O)n(CC3CCCCC3)c3c4cc[nH]c4ncc3c2cc1OC
2. COC(=O)Nc1nc2ccc(C(=O)c3cccs3)cc2[nH]1

1. 14.7
2. 4.33

Data origin, for the record: PubChem BioAssay (NCI)
